In this section we review reported S/N vs BSA values for a set of binders.
Target Or System: T1, hVEGF-A (8-109) (human, UniProt P15692 214-315)
T1 sequence (looked up): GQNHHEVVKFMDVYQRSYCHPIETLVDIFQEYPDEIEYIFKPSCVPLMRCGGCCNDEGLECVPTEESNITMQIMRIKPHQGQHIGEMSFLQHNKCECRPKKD
Assay: spot phage ELISA
Response field accepts a number only; no unit should be typed.

Some solved cases for reference:
{"columns": ["Binder", "S/N vs BSA"],
 "data": [
  ["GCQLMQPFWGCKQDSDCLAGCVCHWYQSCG (designed binder, also called E9) [VEGF_CKP9]", 36],
  ["GCNIMLPFWGCSRDFDCLAGCVCQYYQSCG (designed binder) [VEGF_CKP9.54.44]", 34.4],
  ["GCNIMLPFWGCGVDYLCLAGCVCQYYQSCG (designed binder) [VEGF_CKP9.54.16]", 30.8]
]}

What does the data say about its S/N vs BSA? Entry: GCNIMLPFWGCGLDYDCLAGCVCQYYQSCG (designed binder) [VEGF_CKP9.54.2]
26

Look up S/N vs BSA for this binder: GCTTPWPPHEIMCKQDSDCLAGCVCGPNGFCG (designed binder) [VEGF_CKP12]
55.2

Query (binder): GCPAIQNWKEHPCKQDSDCLAGCVCSWWPSLCG (designed binder) [VEGF_CKP5] ; field requested: S/N vs BSA
28.4

Fill in the blank: the reported S/N vs BSA of GCRDLDVKWDCKQDSDCLAGCFCQYYSSCG (designed binder) [VEGF_CKP10] is ____.
43.7

Reported S/N vs BSA for GCQLMHPFWGCKQDSDCLAGCVCHWYRSCG (designed binder) [VEGF_CKP8] : what is it?
59.4
